Parameter: AUC(0-t). Scope: all listed entries.
Assay: AUC (0 to last) in C57 mouse at 10 mg/kg, po
Format: ADME, organism-based
Design: time 0 - last, dose 10 mg/kg, route oral
Conditions: plasma
Report the value in ng·h/mL with no unit label.

Guide cases for AUC(0-t), answers given:
Name the recorded AUC(0-t) for CS(=O)(=O)c1cccc(Oc2cccc(-n3cnc4c(C(F)(F)F)cccc43)c2)c1 .
12100

Value lookup for AUC(0-t); key = CCc1nc2c(C(F)(F)F)cccc2n1-c1cccc(Oc2cccc(S(C)(=O)=O)c2)c1
1780

As a next step, examine the compound that follows.
Find the recorded AUC(0-t) belonging to CCS(=O)(=O)c1cccc(Oc2cccc(-n3c(C)nc4c(Cl)cccc43)c2)c1 and report it.
1780
